assay system: human GPR120 (Homo sapiens)
Sequence (Q5NUL3 whole entry): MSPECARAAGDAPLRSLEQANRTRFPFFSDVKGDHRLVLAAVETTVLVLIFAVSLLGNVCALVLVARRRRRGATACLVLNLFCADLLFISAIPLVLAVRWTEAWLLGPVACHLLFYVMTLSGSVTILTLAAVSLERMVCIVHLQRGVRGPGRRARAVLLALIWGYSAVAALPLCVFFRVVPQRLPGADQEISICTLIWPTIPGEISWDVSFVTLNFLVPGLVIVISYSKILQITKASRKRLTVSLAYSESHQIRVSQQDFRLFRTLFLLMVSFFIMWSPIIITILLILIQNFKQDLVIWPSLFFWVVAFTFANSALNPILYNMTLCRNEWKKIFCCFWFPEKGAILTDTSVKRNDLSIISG
method: Human GPR120 IP1 assay (inositol phosphate turnover)
condition context: IP1 accumulation in CHO-K1 cells stably expressing the short form of human GPR120
Text: The binding of small molecule agonists to the G-protein-coupled receptor GPR120 activates phospholipase C, and leads to the generation of inositol 1,4,5-trisphosphate (InsP3 or IP3). […] In the present method, agonist-induced activation of the human and rat GPR120 receptor was monitored by measuring the accumulation of IP1 in CHO-K1 cells that were stably expressing the short form of human GPR120 (Accession #NM_001195755) or HEK293 cells stably expressing rat GPR120 (Accession #NM_001047088). […]
assay metric: EC50 (nM)

Some compounds with recorded EC50:
Oc1cc(-c2cnc(O[C@H]3C[C@@H](COc4cccc(F)c4)C3)cn2)on1 [Example 84] ... 12
Oc1cc(-c2cnc(O[C@H]3C[C@@H](c4ccc(Br)cc4)C3)cn2)on1 [Example 7] ... 11
Cc1ccc([C@H]2C[C@@H](Oc3cnc(-c4cc(O)no4)cn3)C2)cc1F [Example 57] ... 23
Oc1cc(-c2cnc(O[C@H]3C[C@@H](Oc4cccc(OC(F)(F)F)c4)C3)cn2)on1 [Example 68] ... 52
Oc1cc(-c2ccc(O[C@H]3C[C@@H](C4CCCCC4)C3)nc2)on1 [Example 37] ... 161
Oc1cc(-c2cnc(O[C@H]3C[C@@H](c4ccc(C(F)F)c(F)c4)C3)cn2)on1 [Example 1] ... 8.7
Oc1cc(-c2cnc(O[C@H]3C[C@@H](c4cccc(-c5cnco5)c4)C3)cn2)on1 [Example 19] ... 75
Oc1cc(-c2cnc(O[C@H]3C[C@@H](c4ccc5c(c4)OCCO5)C3)cn2)on1 [Example 42] ... 85

(A) Oc1cc(-c2ccc(O[C@H]3C[C@@](F)(c4ccc(C(F)F)c(F)c4)C3)nc2)on1 [Example 103]
(B) Oc1cc(-c2cnc(O[C@H]3C[C@@H](c4ccc5c(c4)OC(F)(F)O5)C3)cn2)on1 [Example 40]
*Q* Of the pair A and B , name the member with the lesser recorded EC50. Choose, then provide that item's label.
*A* B

(a) Oc1cc(-c2ccc(OCC3CC(Oc4ccccc4)C3)nc2)on1 (centres unmarked) [Example 64]
(b) N#Cc1cccc(COC2CC(Oc3ccc(-c4cc(O)no4)cn3)C2)c1F (mixture of isomers) [Example 77]
*Q* Of the pair a and b , name the member with the lesser recorded EC50. Choose, then provide that item's label.
*A* b

(I) Cc1cc([C@H]2C[C@@H](Oc3cnc(-c4cc(O)no4)cn3)C2)ccc1OC(F)(F)F [Example 44]
(II) CCOc1cc([C@]2(F)C[C@@H](Oc3ccc(-c4cc(O)no4)cn3)C2)ccn1 [Example 86]
*Q* Of the pair I and II , name the member with the lesser recorded EC50. Choose, then provide that item's label.
*A* II

(I) Oc1cc(-c2ccc(O[C@H]3C[C@@](F)(c4ccc5c(c4)OC(F)(F)O5)C3)nc2)on1 [Example 104]
(II) Oc1cc(-c2ccc(O[C@H]3C[C@@](F)(c4ccc(C(F)(F)F)cn4)C3)nc2)on1 [Example 97]
*Q* Form field 'greater EC50' accepts I or II ; which applies? Choose, then provide that item's label.
*A* I
(I: 60 nM, II: 22 nM)
